# credit: PubChem BioAssay AID1918932

Assignment: determine reported viability, T/C for the given compounds.
Tested on: 171881-019-R-J1-PDC complex spheroid viability
Test: Anticancer human tumor 171881-019-R-J1-PDC patient-derived invasive breast carcinoma cell line growth inhibition
Settings: second compound 0.1 µM; first compound 0.00949 µM; hits give low values
Value expressed in %; do not type the unit.

*Q* Check 171881-019-R-J1-PDC complex spheroid viability data and give viability, T/C for NS(=O)(=O)OCC1CC(n2ccc3c(NC4CCc5ccccc54)ncnc32)CC1O (centres undefined) + NC1CCC(NC2CC2c2ccccc2)CC1 .
*A* 109

*Q* Check 171881-019-R-J1-PDC complex spheroid viability data and give viability, T/C for Nc1ccn(C2OC(CO)C(O)C2(F)F)c(=O)n1 (centres undefined) + NC1CCC(NC2CC2c2ccccc2)CC1 .
*A* 56.2

*Q* Check 171881-019-R-J1-PDC complex spheroid viability data and give viability, T/C for Nc1ncn(C2CC(O)C(CO)S2)c(=O)n1 (centres undefined) + NC1CCC(NC2CC2c2ccccc2)CC1 .
*A* 94.3

*Q* Check 171881-019-R-J1-PDC complex spheroid viability data and give viability, T/C for CCN(c1cc(-c2ccc(CN3CCOCC3)cc2)cc(C(=O)NCc2c(C)cc(C)[nH]c2=O)c1C)C1CCOCC1 + NC1CCC(NC2CC2c2ccccc2)CC1 .
*A* 76.3

----------
Tested on: 171881-019-R-J1-PDC complex spheroid viability
Assay: Anticancer human tumor 171881-019-R-J1-PDC cell line growth inhibition;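 also: spheroids exposed to agents for 7 days after 3 days growth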
Settings: second compound 0.1 µM; first compound 0.3 µM; hits give low values
Entries whose viability, T/C is below 60% take criterion met; entries at or above 60% take criterion not met.

*Q* A record lists O=C(C=Cc1cccc(S(=O)(=O)Nc2ccccc2)c1)NO + NC1CC1c1ccc(-c2cccc(O)c2)cc1 . Is its viability, T/C below 60%?
*A* criterion not met

*Q* A record lists CCc1c2c(nc3ccc(O)cc13)-c1cc3c(c(=O)n1C2)COC(=O)[C@]3(O)CC + NC1CCC(NC2CC2c2ccccc2)CC1 . Is its viability, T/C below 60%?
*A* criterion met

*Q* A record lists COc1cc(C2c3cc4c(cc3C(OC3OC5COC(C)OC5C(O)C3O)C3COC(=O)C23)OCO4)cc(OC)c1O (stereo not given) + NC1CC1c1ccc(-c2cccc(O)c2)cc1 . Is its viability, T/C below 60%?
*A* criterion not met

*Q* A record lists Nc1ccn(C2OC(CO)C(O)C2(F)F)c(=O)n1 (stereo not given) + NC1CCC(NC2CC2c2ccccc2)CC1 . Is its viability, T/C below 60%?
*A* criterion met

*Q* A record lists Nc1ccccc1NC(=O)c1ccc(CNC(=O)OCc2cccnc2)cc1 + NC1CC1c1ccc(-c2cccc(O)c2)cc1 . Is its viability, T/C below 60%?
*A* criterion not met

----------
Test system: 171881-019-R-J1-PDC complex spheroid viability
Test: Anticancer human tumor 171881-019-R-J1-PDC cell line growth inhibition;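 also: spheroids exposed to agents for 7 days after 3 days growth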
Details: second compound 10 µM; first compound 0.0949 µM; hits give low values
Entries whose viability, T/C is below 90% take Satisfied; entries at or above 90% take Not satisfied.

*Q* A record lists Nc1ncn(C2CC(O)C(CO)S2)c(=O)n1 (configuration not stated) + NC1CC1c1ccc(-c2cccc(O)c2)cc1 . Is its viability, T/C below 90%?
*A* Satisfied

*Q* A record lists COc1cc(C2c3cc4c(cc3C(OC3OC5COC(C)OC5C(O)C3O)C3COC(=O)C23)OCO4)cc(OC)c1O (configuration not stated) + NC1CCC(NC2CC2c2ccccc2)CC1 . Is its viability, T/C below 90%?
*A* Not satisfied

*Q* A record lists O=C(C=Cc1cccc(S(=O)(=O)Nc2ccccc2)c1)NO + NC1CCC(NC2CC2c2ccccc2)CC1 . Is its viability, T/C below 90%?
*A* Not satisfied

*Q* A record lists COc1cc(C2c3cc4c(cc3C(OC3OC5COC(C)OC5C(O)C3O)C3COC(=O)C23)OCO4)cc(OC)c1O (configuration not stated) + NC1CC1c1ccc(-c2cccc(O)c2)cc1 . Is its viability, T/C below 90%?
*A* Satisfied

*Q* A record lists O=C(C=Cc1cccc(S(=O)(=O)Nc2ccccc2)c1)NO + NC1CC1c1ccc(-c2cccc(O)c2)cc1 . Is its viability, T/C below 90%?
*A* Satisfied

*Q* A record lists CCN(c1cc(-c2ccc(CN3CCOCC3)cc2)cc(C(=O)NCc2c(C)cc(C)[nH]c2=O)c1C)C1CCOCC1 + NC1CCC(NC2CC2c2ccccc2)CC1 . Is its viability, T/C below 90%?
*A* Satisfied

*Q* A record lists Nc1ccn(C2OC(CO)C(O)C2(F)F)c(=O)n1 (configuration not stated) + NC1CC1c1ccc(-c2cccc(O)c2)cc1 . Is its viability, T/C below 90%?
*A* Satisfied

----------
System: 171881-019-R-J1-PDC complex spheroid viability
Experiment: Anticancer human tumor 171881-019-R-J1-PDC cell line growth inhibition;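 also: spheroids exposed to agents for 7 days after 3 days growth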
Settings: second compound 0.316 µM; first compound 0.0949 µM; hits give low values
Entries whose viability, T/C is below 80% take TRUE; entries at or above 80% take FALSE.

*Q* A record lists CCN(c1cc(-c2ccc(CN3CCOCC3)cc2)cc(C(=O)NCc2c(C)cc(C)[nH]c2=O)c1C)C1CCOCC1 + NC1CCC(NC2CC2c2ccccc2)CC1 . Is its viability, T/C below 80%?
*A* TRUE

*Q* A record lists Nc1ccccc1NC(=O)c1ccc(CNC(=O)OCc2cccnc2)cc1 + NC1CC1c1ccc(-c2cccc(O)c2)cc1 . Is its viability, T/C below 80%?
*A* FALSE

*Q* A record lists CCc1c2c(nc3ccc(O)cc13)-c1cc3c(c(=O)n1C2)COC(=O)[C@]3(O)CC + NC1CC1c1ccc(-c2cccc(O)c2)cc1 . Is its viability, T/C below 80%?
*A* TRUE

*Q* A record lists O=C(C=Cc1cccc(S(=O)(=O)Nc2ccccc2)c1)NO + NC1CCC(NC2CC2c2ccccc2)CC1 . Is its viability, T/C below 80%?
*A* FALSE

*Q* A record lists CCc1c2c(nc3ccc(O)cc13)-c1cc3c(c(=O)n1C2)COC(=O)[C@]3(O)CC + NC1CCC(NC2CC2c2ccccc2)CC1 . Is its viability, T/C below 80%?
*A* TRUE

*Q* A record lists Nc1ncn(C2CC(O)C(CO)S2)c(=O)n1 (configuration not stated) + NC1CC1c1ccc(-c2cccc(O)c2)cc1 . Is its viability, T/C below 80%?
*A* TRUE

----------
Assignment: determine reported viability, T/C for the given compounds.
Test system: 171881-019-R-J1-PDC complex spheroid viability
Assay: Anticancer human tumor 171881-019-R-J1-PDC cell line growth inhibition;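 also: spheroids exposed to agents for 7 days after 3 days growth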
Conditions: second compound 3.16 µM; first compound 0.000949 µM; hits give low values
Excerpt: Multicellular complex tumor spheroid response to LSD1 Inhibitor Iadademstat in combination with a variety of drugs and investigational agents in selected tumor cell lines The current study was undertaken to assess response to LSD1 inhibitors in combination with standard-of-care drugs and investigational agents in solid tumor complex spheroid models as well as in the K-562 leukemia. […] Compounds. […] If the clinical Cmax for an agent had not been determined, the highest concentration tested was 10 microM. […]
Value expressed in %; do not type the unit.

*Q* Supply measured viability, T/C of Nc1ncn(C2CC(O)C(CO)S2)c(=O)n1 (stereo unspecified) + NC1CC1c1ccc(-c2cccc(O)c2)cc1 in your reply.
*A* 95.1

*Q* Supply measured viability, T/C of CCc1c2c(nc3ccc(O)cc13)-c1cc3c(c(=O)n1C2)COC(=O)[C@]3(O)CC + NC1CCC(NC2CC2c2ccccc2)CC1 in your reply.
*A* 75

*Q* Supply measured viability, T/C of Nc1ccn(C2OC(CO)C(O)C2(F)F)c(=O)n1 (stereo unspecified) + NC1CC1c1ccc(-c2cccc(O)c2)cc1 in your reply.
*A* 74.8

*Q* Supply measured viability, T/C of CCc1c2c(nc3ccc(O)cc13)-c1cc3c(c(=O)n1C2)COC(=O)[C@]3(O)CC + NC1CC1c1ccc(-c2cccc(O)c2)cc1 in your reply.
*A* 22.5

*Q* Supply measured viability, T/C of Nc1ccn(C2OC(CO)C(O)C2(F)F)c(=O)n1 (stereo unspecified) + NC1CCC(NC2CC2c2ccccc2)CC1 in your reply.
*A* 84.8

*Q* Supply measured viability, T/C of Nc1ncn(C2CC(O)C(CO)S2)c(=O)n1 (stereo unspecified) + NC1CCC(NC2CC2c2ccccc2)CC1 in your reply.
*A* 85.1

----------
Assignment: determine reported viability, T/C for the given compounds.
Test system: 171881-019-R-J1-PDC complex spheroid viability
Test: Anticancer human tumor 171881-019-R-J1-PDC cell line growth inhibition;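 also: spheroids exposed to agents for 7 days after 3 days growth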
Conditions: second compound 0.1 µM; first compound 0.3 µM; hits give low values
Value expressed in %; do not type the unit.

*Q* Supply measured viability, T/C of Nc1ccn(C2OC(CO)C(O)C2(F)F)c(=O)n1 (centres undefined) + NC1CC1c1ccc(-c2cccc(O)c2)cc1 in your reply.
*A* 64.1

*Q* Supply measured viability, T/C of CCN(c1cc(-c2ccc(CN3CCOCC3)cc2)cc(C(=O)NCc2c(C)cc(C)[nH]c2=O)c1C)C1CCOCC1 + NC1CCC(NC2CC2c2ccccc2)CC1 in your reply.
*A* 101

*Q* Supply measured viability, T/C of Nc1ncn(C2CC(O)C(CO)S2)c(=O)n1 (centres undefined) + NC1CCC(NC2CC2c2ccccc2)CC1 in your reply.
*A* 37.2

*Q* Supply measured viability, T/C of Nc1ccccc1NC(=O)c1ccc(CNC(=O)OCc2cccnc2)cc1 + NC1CCC(NC2CC2c2ccccc2)CC1 in your reply.
*A* 43.9
